Biological target: human recombinant dopamine D2 receptor (Homo sapiens (Human), UniProt P14416)
Sequence (P14416 whole entry): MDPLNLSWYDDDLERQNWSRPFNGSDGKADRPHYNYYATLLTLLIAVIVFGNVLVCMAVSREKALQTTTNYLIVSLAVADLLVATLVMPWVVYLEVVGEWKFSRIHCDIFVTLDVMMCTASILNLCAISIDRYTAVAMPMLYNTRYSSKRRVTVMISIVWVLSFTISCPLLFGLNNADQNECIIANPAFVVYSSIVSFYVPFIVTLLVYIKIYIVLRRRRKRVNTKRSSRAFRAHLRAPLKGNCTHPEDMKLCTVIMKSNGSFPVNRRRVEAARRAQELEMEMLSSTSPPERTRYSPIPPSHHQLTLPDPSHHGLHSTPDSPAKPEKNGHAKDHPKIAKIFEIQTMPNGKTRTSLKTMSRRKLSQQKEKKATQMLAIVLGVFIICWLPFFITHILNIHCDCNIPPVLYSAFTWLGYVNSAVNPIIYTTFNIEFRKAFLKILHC
Experiment: Test of binding inhibition for dopamine D2 receptor ([3H]-Methylspiperone SPA)
Details: Jump-In HEK cell membranes, 1.2 nM [3H]-Methylspiperone, 120 min at 25° C.; read-out: hD2_Ki
Experimental: (Experimental Conditions) Cell membranes: Jump-In HEK cell membranes expressing human recombinant dopamine D2 receptor (2 μg/well) Non-specific ligand: (final concentration) 10 μM Butaclamol [(+)-Butaclamol Hydrochloride, D033, Sigma] SPA beads solution: SPA beads [WGA PVT SPA Scintillation Beads, RPNQ0001 (500 mg), RPNQ0060 (2 g), PerkinElmer] (0.2 mg/well) Incubation time and temperature: 120 min at 25° C. […]
Assignment: determine reported Ki for the given compounds.

Query string: Param item = Cc1cc(OCC(=O)N[C@H]2CC[C@](F)(CCN3CCc4ccc(OCC(F)F)nc4CC3)CC2)no1 [Example I-084] ; retrieve measured Ki.
Result string: > 2200 nM

Query string: Another compound: Cc1cnc(OCC(=O)N[C@H]2CC[C@](F)(CCN3CCc4nc(OCCC(F)(F)F)sc4CC3)CC2)cn1 [Example I-118]
Result string: > 2200 nM

Query string: Then what about the compound Cc1ncc(/C=C/C(=O)N[C@H]2CC[C@](F)(CCN3CCc4nc(OCCC(F)(F)F)sc4CC3)CC2)cn1 [Example I-116] ?
Result string: > 2200 nM

###

Target: human recombinant dopamine D2 receptor (Homo sapiens (Human), UniProt P14416)
Experiment: Test of binding inhibition for dopamine D2 receptor ([3H]-Methylspiperone SPA)
Details: [3H]-Methylspiperone 1.2 nM, Jump-In HEK cell membranes; read-out: hD2_Ki
pKi: −log10 of the molar value.
testReadout: pKi

Query string: Reported pKi for human recombinant dopamine D2 receptor (Homo sapiens (Human), UniProt P14416), given Cn1ncc(CC(=O)N[C@H]2CC[C@](F)(CCN3CCc4nc(OCC(F)F)sc4CC3)CC2)c1F [I′-29] ?
Result string: < 5.66

Query string: One more compound: Cn1cc(CC(=O)N[C@H]2CC[C@H](CCN3CCc4nc(OCC(C)(F)F)sc4CC3)CC2)c(F)n1 [I′-27]
Result string: < 5.66

Query string: How about this compound: COc1cc(CC(=O)N[C@H]2CC[C@H](CCN3CCc4ccc(CCC(F)(F)F)nc4CC3)CC2)on1 [I′-2]
Result string: < 5.64

###

Molecular target: human recombinant dopamine D2 receptor (Homo sapiens (Human), UniProt P14416)
Test: Test of binding inhibition for dopamine D2 receptor ([3H]-Methylspiperone SPA)
Settings: Jump-In HEK cell membranes, 1.2 nM [3H]-Methylspiperone, 120 min at 25° C.; read-out: hD2_Ki
testReadout: Ki

Query string: What value of Ki has been reported for the following molecule? Cc1nc(CC(=O)N[C@H]2CC[C@H](CCN3CCc4nc(OCC(C)(F)F)sc4CC3)OC2)no1 [Example I-008]
Result string: > 1.9 µM

Query string: Try this molecule too: Cn1ncc(CC(=O)N[C@H]2CC[C@](F)(CCN3CCc4ccc(OC5CCC5)nc4CC3)CC2)n1 [Example I-106]
Result string: > 2.3 µM

Query string: Next record, please: Cc1nnc(CC(=O)N[C@H]2CC[C@](F)(CCN3CCc4nc(O[C@H](C)C(F)(F)F)sc4CC3)CC2)s1 [Example I-126]
Result string: > 2.3 µM

Query string: Also Cn1c(C(=O)N[C@H]2CC[C@](F)(CCN3CCc4nc(OCCC(F)(F)F)sc4CC3)CC2)cccc1=O [Example I-113] , if possible.
Result string: > 2.2 µM

Query string: Try this molecule too: Cc1cc(OCC(=O)N[C@H]2CC[C@](F)(CCN3CCc4ccc(OCC(C)(F)F)nc4CC3)CC2)no1 [Example I-079]
Result string: > 1.8 µM

Query string: How about this molecule: Cn1ccc2c(C(=O)N[C@H]3CC[C@H](CCN4CCc5nc(OCC(C)(F)F)sc5CC4)CC3)cccc2c1=O [Example I-055]
Result string: > 1.8 µM
